The reader will find reported pKi values listed item by item below.
Tested System: Carbonic anhydrase 9 (Homo sapiens)
# log scale: pKi equals minus log10 of the concentration in mol/L

• NS(=O)(=O)c1ccc(-c2ccc(C(=O)c3cccc(C(=O)O)c3)cc2)cc1 = 6.31
• Nc1cccc(C(=O)c2ccc(-c3ccc(S(N)(=O)=O)cc3)cc2)c1 = 6.58
• NS(=O)(=O)c1ccc(-c2ccc(C3OC(=O)c4ccccc43)cc2)cc1 (stereo not given) = 6.60

The compound Nc1ccccc1C(=O)c1ccc(-c2ccc(S(N)(=O)=O)cc2)cc1 on Carbonic anhydrase 9 (Homo sapiens): pKi was 6.54

Let me check: NS(=O)(=O)c1ccc(-c2ccc(Cc3cccc(C(=O)O)c3)cc2)cc1 , system Carbonic anhydrase 9 (Homo sapiens), measured pKi is 6.49
